measured-on: Neu5Ac(a2-8)Neu5Ac(a2-8)Neu5Ac(a2-8)Neu5Ac(a2-3)[GalNAc(b1-4)]Gal(b1-4)Glc
measurement-protocol: glycan array binding signal (z-score within array); higher = stronger binding
assay-context: glycan notation: IUPAC condensed, linker removed
The full list was thinned out, with the strongest signals kept by preference.
Lab note: anything with glycan array binding signal (z-score) at or over 2 counts as condition met; the rest go in condition not met.

Consider the worked cases shown below.
CLEC9a (Mus musculus), Q8BRU4 (protein) MHAEEIYTSLQWDIPTSEASQKCQSPSKCSGAWCVVTMISCVVCMGLLATSIFLGIKFFQVSSLVLEQQERLIQQDTALVNLTQWQRKYTLEYCQALLQRSLHSGSDCSPCPHNWIQNGKSCYYVFERWEMWNISKKSCLKEGASLFQIDSKEEMEFISSIGKLKGGNKYWVGVFQDGISGSWFWEDGSSPLSDLLPAERQRSAGQICGYLKDSTLISDKCDSWKYFICEKKAFGSCI ... condition met
MGL (Homo sapiens), Q8IUN9 (protein) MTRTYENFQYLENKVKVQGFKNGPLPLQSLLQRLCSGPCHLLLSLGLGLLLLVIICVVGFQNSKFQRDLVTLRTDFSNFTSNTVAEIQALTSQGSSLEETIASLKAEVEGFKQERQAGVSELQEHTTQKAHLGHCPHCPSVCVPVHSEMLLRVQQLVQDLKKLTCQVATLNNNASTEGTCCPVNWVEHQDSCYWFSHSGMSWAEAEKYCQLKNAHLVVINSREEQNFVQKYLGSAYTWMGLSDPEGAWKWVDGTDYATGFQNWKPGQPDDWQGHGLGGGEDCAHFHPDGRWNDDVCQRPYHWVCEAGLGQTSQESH ... condition met
CCL2 (Coprinopsis cinerea), B3GA02 (protein) MDSPAVTLSAGNYIIYNRVLSPRGEKLALTYPGRQRTPVTVSPLDGSSEQAWILRSYDSNSNTWTISPVGSPNSQIGWGAGNVPVVLPPNNYVWTLTLTSGGYNIQDGKRTVSWSLNNATAGEEVSIGADATFSGRWVIEKV ... condition not met
HFR-1 (Triticum aestivum) (protein) MSPQSFTLETTTTTPAAKGSDPSYFQSAPACHEMIQHKELLLHLYAYQNVQKTPDANQAVIVESKRPECFGILAANDWTVYDGPAHNANLVAHAQGLHLGASMAKENWFICFNMVFVNQRFTGSSFKVMGDFQGTAHNGEWAIVGGTGEFAYAQGVIAFKKTQQSERNARMELHVRAMCLSFLRPLLSLGDGSAVAKIGPWGKMSGELLDIPSTPQRLERITIRHGVVIDSLAFSFIDKAGEPYNVGPWGGRRGDNKDTIELAPSEIVTEVSGTVGIFAEDNVEYNAIASLTITTNHRPYGPFGETQSTPFSVPVQDNNNIVGFFACAGKYVEALGVYVRSPVST ... condition not met

// switching to the query binder
Request: # check: glycan array binding signal (z-score) of HHL-2 (Homo sapiens), P07307 (protein) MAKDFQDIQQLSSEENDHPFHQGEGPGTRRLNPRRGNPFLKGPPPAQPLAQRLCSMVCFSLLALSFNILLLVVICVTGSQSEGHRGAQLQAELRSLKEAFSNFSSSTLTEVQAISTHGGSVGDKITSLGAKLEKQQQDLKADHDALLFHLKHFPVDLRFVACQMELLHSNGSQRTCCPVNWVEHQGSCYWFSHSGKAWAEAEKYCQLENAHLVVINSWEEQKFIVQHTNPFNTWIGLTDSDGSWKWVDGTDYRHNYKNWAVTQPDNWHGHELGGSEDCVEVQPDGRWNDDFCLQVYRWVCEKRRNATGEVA is greater than or equal to 2
Result: condition not met
